Measured values drawn from patent US10196363B2 for this set.

- Target Desc: mouse RORγ (Mus musculus)
- Construct: mouse RORγ, from Ile251 to Lys516; expressed in transfected cells; host or cells: CHO cells (Chinese hamster ovary), transient co-transfection with pG5-Luc
- Protocol Notes: In vitro assay of inhibitory effect against RORγ transcriptional activity (GAL4-mRORγ LBD luciferase reporter gene assay in CHO cells)
- Assay type: cell-based
- Assay Conditions: GAL4-mRORγ LBD luciferase reporter, CHO cells; read-out: LUC EC50 mRORγ
Quantity Name: EC50 (nM)

In the examples that follow, each entry is paired with its recorded EC50.
Smiles Repr | Target Desc | EC50 (nM)
COc1cc([C@]2(C)NC(=O)N(CCC(=O)O)C=C2C(C)C)ccc1CCC(C)(C)C | mouse RORγ (Mus musculus) | 56
CC(C)[C@H]1C[C@@H](c2ccc([C@]3(C)NC(=O)N([C@H]4C[C@H](C(=O)O)C4)C=C3C3CC(F)(F)C3)cc2Cl)C1 | mouse RORγ (Mus musculus) | 50

1. CC(C)CC1=CN(CCC(=O)O)C(=O)N[C@@]1(C)c1ccc(OCC(C)(C)C)c(Cl)c1F
2. CC(C)C1=CN([C@@H]2CCCC[C@H]2C(=O)O)C(=O)N[C@@]1(C)c1ccc(CCC(C)(C)C)c(Cl)c1
3. CC(C)(C)CCc1ccc([C@]2(C)NC(=O)N(C34CC(C(=O)O)(C3)C4)C=C2C2CC(F)(F)C2)cc1C(F)(F)F
In: Sort low-to-high on EC50, please. Your reply should list the labels following the order given in the request.
Out: 3, 1, 2
(3: 32 nM, 1: 51 nM, 2: 1610 nM)

====

- Target Desc: mouse RORγ (Mus musculus, UniProt P51450)
- Construct: mouse RORγ, from Ile251 to Lys516; expressed in transfected cells; host or cells: CHO cells (Chinese hamster ovary), transient co-transfection with pG5-Luc
- Sequence (P51450 251-516): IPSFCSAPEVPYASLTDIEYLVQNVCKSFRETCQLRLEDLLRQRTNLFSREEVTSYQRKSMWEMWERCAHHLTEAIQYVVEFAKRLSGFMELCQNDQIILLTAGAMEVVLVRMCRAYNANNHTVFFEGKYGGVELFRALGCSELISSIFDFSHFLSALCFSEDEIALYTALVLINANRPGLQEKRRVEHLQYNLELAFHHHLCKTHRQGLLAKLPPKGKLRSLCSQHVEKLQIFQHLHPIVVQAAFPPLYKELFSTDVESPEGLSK
- Protocol Notes: In vitro assay of inhibitory effect against RORγ transcriptional activity (GAL4-mRORγ LBD luciferase reporter gene assay in CHO cells)
- Format: cell-based
- Assay Conditions: GAL4-mRORγ LBD / pG5-Luc in CHO cells, 2 days incubation
- Experimental: In Vitro Assay of Inhibitory Effect Against RORγ Transcriptional Activity Inhibitory effect of a test article on transcriptional activity of RORγ was measured by means of the following reporter gene assay. […] RORγ transcriptional activity was detected as the intracellular luciferase activity using SteadyLite HTS Reporter Gene Assay System (Perkin Elmer). […] After the incubation at room temperature for 10 minutes, luminescence of each well was measured by a microplate reader. […]
Quantity Name: EC50 (nM)

Use the examples below as a reference point.
Compound | Recorded Result
CC(C)C1=CN(CCCCC(=O)O)C(=O)NC1(C)c1ccc(OCC(C)(C)C)c(Cl)c1 (racemic) | 28
CC(C)(C)CCc1ccc(C2(C)NC(=O)N([C@H]3C[C@H](CO)C3)C=C2C(C)(C)CCC(=O)O)cc1Cl (single isomer, unassigned) | 76
CC(C)(C)CCc1ccc(C2NC(=O)N(CCCC(=O)O)C=C2C(C)(C)C)cc1Cl (single isomer, unassigned) [Example 10] | 17
CC(C)C1=CN(c2ccc(C(=O)O)cc2)C(=O)N[C@@]1(C)c1ccc(CCC(C)(C)C)c(Cl)c1 | 23

I. CC(C)(C)CCc1ccc(C2(C)NC(=O)NC=C2C(C)(C)CCC(=O)O)cc1Cl (single isomer, unassigned)
II. CC(C)(C)CCc1ccc(C2(C)NC(=O)N(CCCC(=O)O)C=C2CC(C)(C)C)cc1Cl (racemic)
III. CC(C)C1=CN([C@H]2C[C@H](CC(=O)O)C2)C(=O)N[C@]1(C)c1ccc(CCC(C)(C)C)c(Cl)c1 (single isomer, unassigned)
In: Order field: EC50 | Direction: descending (largest first) Reply with the item labels sorted in the order that was asked for.
Out: III, II, I
(III: 1980 nM, II: 41 nM, I: 19 nM)
